# system-under-test: recombinant human CD73 (hCD73) (Homo sapiens, UniProt P21589)
# Sequence (P21589 27-574): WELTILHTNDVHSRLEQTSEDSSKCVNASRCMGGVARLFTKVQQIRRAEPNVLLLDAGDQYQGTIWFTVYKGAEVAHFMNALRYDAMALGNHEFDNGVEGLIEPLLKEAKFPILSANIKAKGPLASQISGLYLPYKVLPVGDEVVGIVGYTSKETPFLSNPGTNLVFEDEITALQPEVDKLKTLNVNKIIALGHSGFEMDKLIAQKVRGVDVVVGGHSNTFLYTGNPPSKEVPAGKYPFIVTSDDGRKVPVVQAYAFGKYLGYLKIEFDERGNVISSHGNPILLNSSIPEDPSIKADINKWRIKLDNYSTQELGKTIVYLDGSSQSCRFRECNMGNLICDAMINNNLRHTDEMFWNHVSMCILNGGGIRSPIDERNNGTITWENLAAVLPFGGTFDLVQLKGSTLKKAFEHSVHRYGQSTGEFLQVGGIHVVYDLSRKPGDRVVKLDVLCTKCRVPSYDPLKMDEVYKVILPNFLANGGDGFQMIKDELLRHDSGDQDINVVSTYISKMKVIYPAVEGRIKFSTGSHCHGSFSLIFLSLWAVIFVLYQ
# test-summary: CD73 activity assay on recombinant human CD73
# Format: biochemical
# measurement-context: ΔGexp = RT ln Ki
quantity-measured: dG_exp, experimental binding free energy

- Cc1nc(-c2ccco2)c2ccn([C@@H]3O[C@H](COP(=O)(O)CP(=O)(O)O)[C@@H](O)[C@H]3O)c2n1 [18E.1]: –13.2 kcal/mol
- O=P(O)(O)CP(=O)(O)OC[C@H]1O[C@@H](n2ccc3c(-c4ccsc4)ncnc32)[C@H](O)[C@@H]1O [4A.4]: –13.2 kcal/mol

====

# system-under-test: recombinant human CD73 (hCD73) (Homo sapiens, UniProt P21589)
# test-summary: CD73 activity assay on recombinant human CD73
# Assay type: biochemical
# measurement-context: ΔGexp = RT ln Ki
quantity-measured: dG_exp, experimental binding free energy

* O=P(O)(O)CP(=O)(O)OC[C@H]1O[C@@H](n2ccc3c(-c4cccc5ccccc45)nc(Cl)nc32)[C@H](O)[C@@H]1O | –15.4 kcal/mol
* O=P(O)(O)CP(=O)(O)OC[C@H]1O[C@@H](n2cnc3c(-c4cccc5c4CCCC5)ncnc32)[C@H](O)[C@@H]1O [31A.12] | –11.8 kcal/mol
* Nc1nc(-c2cccc3ccccc23)c2ccn([C@@H]3O[C@H](COP(=O)(O)CP(=O)(O)O)[C@@H](O)[C@H]3O)c2n1 [11C.6] | –13.9 kcal/mol
* Nc1nc(-c2cc3ccccc3o2)c2ccn([C@@H]3O[C@H](COP(=O)(O)CP(=O)(O)O)[C@@H](O)[C@H]3O)c2n1 [11C.8] | –13.9 kcal/mol
* O=P(O)(O)CP(=O)(O)OC[C@H]1O[C@@H](n2ccc3c(-c4ccc5ccccc5c4)ncnc32)[C@H](O)[C@@H]1O | –13.4 kcal/mol
* Nc1nc(-c2ccco2)c2ccn([C@@H]3O[C@H](COP(=O)(O)CP(=O)(O)O)[C@@H](O)[C@H]3O)c2n1 [11C.1] | –13.1 kcal/mol
* O=P(O)(O)CP(=O)(O)OC[C@H]1O[C@@H](n2ccc3c(-c4ccco4)nc(F)nc32)[C@H](O)[C@@H]1O [14D.1] | –13.4 kcal/mol
* O=P(O)(O)CP(=O)(O)OC[C@H]1O[C@@H](n2ccc3c(-c4ccc5ccccc5c4)ncnc32)[C@@H](F)[C@@H]1O [34A.7] | –11.8 kcal/mol
* Nc1nc(-c2cccc3c2CCCC3)c2ccn([C@@H]3O[C@H](COP(=O)(O)CP(=O)(O)O)[C@@H](O)[C@H]3O)c2n1 [11C.12] | –13.9 kcal/mol
* O=P(O)(O)CP(=O)(O)OC[C@H]1O[C@@H](n2ccc3c(-c4cc5ccccc5c5ccccc45)ncnc32)[C@H](O)[C@@H]1O | –13.1 kcal/mol

According to the records, this molecule O=P(O)(O)CP(=O)(O)OC[C@H]1O[C@@H](n2ccc3c(-c4cccs4)ncnc32)[C@H](O)[C@@H]1O displays dG_exp, experimental binding free energy of –13.1 kcal/mol

Looking up O=P(O)(O)CP(=O)(O)OC[C@H]1O[C@@H](n2ccc3c(-c4ccc5cc(F)ccc5c4)nc(Cl)nc32)[C@H](O)[C@@H]1O , I see its dG_exp, experimental binding free energy listed as –15.4 kcal/mol
